Cited source for all entries: patent US12398141B2

# Paw swelling rate_1 h (%) per entry
Test system: male ICR mice
Assay: Carrageenan-induced paw swelling in mice
Assay type: in vivo
Settings: 10 mg/kg intragastric, 1 h
Experimental: The inhibiting effects of compounds H01, H07, H11, H12, H14, H15, H22, H25, H29, H30, H33, H39 and H44 on paw swelling in mice were determined after intragastric administration by using male ICR mice (ShanghaiSippr-BK laboratory animal Co. Ltd.), aged 8 weeks and weighing 22-24 g as test animals. The anti-inflammatory pharmacodynamics characteristic of the compounds of the invention was discussed. […]

>  <Compound>
CN(c1c(C#N)cnc2[nH]ccc12)[C@H]1C[C@@H]2CN(C(=O)Nc3nc(OCC(C)(C)N)ns3)C[C@@H]2C1

>  <Target Under Test>
male ICR mice

>  <Unit Of Measurement>
%

>  <Paw swelling rate_1 h (%)>
42.65

$$$$
>  <Compound>
COc1nsc(NC(=O)N2C[C@H]3C[C@H](N(C)c4c(C#N)cnc5[nH]ccc45)C[C@H]3C2)n1

>  <Target Under Test>
male ICR mice

>  <Unit Of Measurement>
%

>  <Paw swelling rate_1 h (%)>
42.33

$$$$
>  <Compound>
C[C@@H]1CCN(C(=O)CC#N)C[C@@H]1N(C)c1c(C#N)cnc2[nH]ccc12

>  <Target Under Test>
male ICR mice

>  <Unit Of Measurement>
%

>  <Paw swelling rate_1 h (%)>
39.76

$$$$
>  <Compound>
CN(c1c(C#N)cnc2[nH]ccc12)[C@H]1C[C@@H](NS(=O)(=O)CCC(F)(F)F)C1

>  <Target Under Test>
male ICR mice

>  <Unit Of Measurement>
%

>  <Paw swelling rate_1 h (%)>
43.33

$$$$
>  <Compound>
COc1nsc(NC(=O)N[C@H]2C[C@@H](N(C)c3c(C#N)cnc4[nH]ccc34)C2)n1

>  <Target Under Test>
male ICR mice

>  <Unit Of Measurement>
%

>  <Paw swelling rate_1 h (%)>
41.65

$$$$
>  <Compound>
CN(C)c1nsc(NC(=O)N2C[C@H]3C[C@H](N(C)c4c(C#N)cnc5[nH]ccc45)C[C@H]3C2)n1

>  <Target Under Test>
male ICR mice

>  <Unit Of Measurement>
%

>  <Paw swelling rate_1 h (%)>
31.76

$$$$
>  <Compound>
N#Cc1cnc2[nH]ccc2c1N1CC2CN(C(=O)NCC(F)(F)F)CC21 (centres unmarked)

>  <Target Under Test>
male ICR mice

>  <Unit Of Measurement>
%

>  <Paw swelling rate_1 h (%)>
26.44

$$$$
>  <Compound>
CC[C@@H]1CN(C(=O)NCC(F)(F)F)CC1Nc1c(C#N)cnc2[nH]ccc12 (some centres unmarked)

>  <Target Under Test>
male ICR mice

>  <Unit Of Measurement>
%

>  <Paw swelling rate_1 h (%)>
40.93

$$$$
>  <Compound>
COc1ccc2c(c1)c(CC(=O)O)c(C)n2C(=O)c1ccc(Cl)cc1 [Indomethacin, reference compound]

>  <Target Under Test>
male ICR mice

>  <Unit Of Measurement>
%

>  <Paw swelling rate_1 h (%)>
42.21

$$$$
>  <Compound>
N#Cc1cnc2[nH]ccc2c1N[C@H]1C[C@@H](NS(=O)(=O)CCC(F)(F)F)C1

>  <Target Under Test>
male ICR mice

>  <Unit Of Measurement>
%

>  <Paw swelling rate_1 h (%)>
45.64

$$$$
>  <Compound>
CN(c1c(C#N)cnc2[nH]ccc12)[C@H]1C[C@@H]2CN(C(=O)NCC(F)(F)F)C[C@@H]2C1

>  <Target Under Test>
male ICR mice

>  <Unit Of Measurement>
%

>  <Paw swelling rate_1 h (%)>
41.76

$$$$
>  <Compound>
CC(C)c1nsc(NC(=O)N2C[C@H]3C[C@H](N(C)c4c(C#N)cnc5[nH]ccc45)C[C@H]3C2)n1

>  <Target Under Test>
male ICR mice

>  <Unit Of Measurement>
%

>  <Paw swelling rate_1 h (%)>
43.43

$$$$
>  <Compound>
CN(c1c(C#N)cnc2[nH]ccc12)[C@H]1C[C@@H]2CN(C(=O)Nc3ccc(Cl)c(C(F)(F)F)c3)C[C@@H]2C1

>  <Target Under Test>
male ICR mice

>  <Unit Of Measurement>
%

>  <Paw swelling rate_1 h (%)>
44.64

$$$$
>  <Compound>
CCCS(=O)(=O)N[C@H]1C[C@@H](N(C)c2c(C#N)cnc3[nH]ccc23)C1

>  <Target Under Test>
male ICR mice

>  <Unit Of Measurement>
%

>  <Paw swelling rate_1 h (%)>
40.65

$$$$
